Data origin, for the record: paper PMC5540273

Reported values of %Inh for individual entries
Test system: PKAC-alpha;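 also: KINOMEscan kinase panel screen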
Construct: gene PRKACA
Settings: concentration: 1 μM, replicates: in singlicate; n = 1
PROPERTY LABEL: %Inh (%)

compound="CN(C)c1cc(-c2ccc3c(N)n[nH]c3c2)nc(N)n1 [GSK2219329]" value_unit=% reading=32
compound=COC(=O)c1c(-c2ccccc2)c2cc(C)ccc2c(=O)n1Cc1ccccc1 value_unit=% reading=0
compound="C[C@@H]1CC[C@H](C(=O)NC2CCCCC2)CN1c1cc(-c2ccc3c(N)n[nH]c3c2)nc(N)n1 [GSK2291363]" value_unit=% reading=32
compound="CN1C(=O)C(Nc2cc(Cl)c(O)c(Cl)c2)=C(c2ccc(Cl)cc2)C1=O [SB-404321]" value_unit=% reading=0
compound="CCS(=O)(=O)c1ccc(OC)c(Nc2ncc(-c3ccc(F)cc3)o2)c1.Cl [GW591947]" value_unit=% reading=0
compound=Cc1nc(N(C)[C@H]2CN(C(=O)CC#N)CC[C@H]2C)c2cc[nH]c2n1 value_unit=% reading=17
compound="COc1cccc(C2=C(Nc3cccc(C(=O)O)c3)C(=O)NC2=O)c1 [SB-390770]" value_unit=% reading=0
compound="O=C(Nc1n[nH]c2nc(-c3ccccc3)c(Cl)cc12)C1CC1 [SB-734909]" value_unit=% reading=0
compound="O=C(Nc1n[nH]c2cc(-c3ccccc3F)ccc12)C1CC1 [SB-733371]" value_unit=% reading=0
compound=Cn1c(=O)c(F)c(Nc2ccc(I)cc2F)c2c(=O)n(OC[C@H](O)CO)cnc21 value_unit=% reading=10
compound=COc1ccc(-c2coc3ccc(-c4nnc(SCc5cccc(C#N)c5)o4)cc23)cc1 value_unit=% reading=11
compound="COc1cccc(-n2cnc3c(N)ncnc32)c1 [SKF-97416]" value_unit=% reading=11
compound=CCC(=O)c1c(-c2ccccc2)c2cc(Cl)ccc2c(=O)n1Cc1cc(C(=O)NC2CC2)n(C)n1 value_unit=% reading=0
compound="COc1ccc(-n2cnc3c(N)ncnc32)cc1 [SKF-97236]" value_unit=% reading=0
compound="Cc1nnc(-c2ccc(C)c(-c3ccc(C(=O)O)cc3)c2)o1 [GW608005]" value_unit=% reading=0
compound="COc1cc(Nc2nccc(N3CCC(NC(=O)C(C)c4ccc(Cl)cc4)C3)n2)cc(OC)c1OC (stereo not shown) [GSK1379757]" value_unit=% reading=0
compound=CCC(=O)c1c(-c2ccccc2)c2cc(Cl)ccc2c(=O)n1Cc1cc(S(C)(=O)=O)n(CCC(C)(C)O)n1 value_unit=% reading=0
compound="COc1cc2ncn(-c3cc(OCc4ccncc4)c(C(N)=O)s3)c2cc1OC [GSK336313]" value_unit=% reading=0
compound="Nc1ncnc2c1ncn2-c1cccc(F)c1 [SKF-97560]" value_unit=% reading=21
